B1: TPR 5TU (parent)
chain: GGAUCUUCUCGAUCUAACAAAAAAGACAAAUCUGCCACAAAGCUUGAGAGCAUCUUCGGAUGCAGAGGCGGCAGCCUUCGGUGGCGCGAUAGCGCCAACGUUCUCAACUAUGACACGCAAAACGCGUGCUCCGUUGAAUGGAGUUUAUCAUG

- Variants of: B1
- measurement.description: polymerase ribozyme fitness, log enrichment relative to wild type (log ratio); higher = more active; in vitro selection for triplet polymerase activity
Fewer inactive variants are shown than the library holds.
Items are presented alongside their recorded polymerase ribozyme fitness (log ratio).
// print number alone

Solved cases (8 shown):
- change: "G58C A60G G92A A121U"
  obs.value: -2.24
- change: "G50A C125A"
  obs.value: -1.79
- change: "G100C"
  obs.value: -3.72
- change: "A17C"
  obs.value: 0.315
- change: "C96U A147U"
  obs.value: 1.21
- change: "C14G A20C C38U A147U"
  obs.value: -2.09
- change: "U9C C43G G65A G67C C95A"
  obs.value: -4.09
- change: "A22C A52U U82C G86U A97G"
  obs.value: -3.83

Find the recorded polymerase ribozyme fitness (log ratio) belonging to G50A A98U G126A and report it.
-1.26

For A19G C57A G65A , what is its reported polymerase ribozyme fitness (log ratio)?
-2.01

Fill in the blank: the reported polymerase ribozyme fitness (log ratio) of C35U A142G is ____.
-1.79
